- experimentalDetails: method code SF, from DOI: 10.1002/1522-2675(20001004)83:10<2836::aid-hlca2836>3.0.co;2-g
- recordedConditions: pH 5.5
valueType: logD
Numbers only.

Exercise: Param item = Nc1ccccc1-c1ccccc1 ; retrieve measured logD.
Solution: 2.64

---

Task for the reader: assign each of the following compounds its reported logP.
Answers are plain numbers.

compound: Cc1cccc(O)c1C
logP: 2.48

Hey, quick one: what's logP for each of these?
1. CC(C)(C)c1cccc(O)c1
2. Cc1cc(O)cc(C)c1Cl
3. CCC(C)c1ccc(O)cc1 (centres undefined)

Solution:
[3.05, 3.27, 3.32]

---

- experimentalDetails: method code SF-HPLC, from DOI: 10.1021/je049947x
valueType: logP
Answers are plain numbers.

Exercise: Param item = Cc1cccc(C)c1N(Cn1cccn1)C(=O)CCl ; retrieve measured logP.
Solution: 2.22

---

- experimentalDetails: method code SF-AS, from DOI: 10.1021/jm00154a021, PMID: 3959031
- recordedConditions: pH 9.0
valueType: logD

Exercise: Param item = CN1CCN(CCn2cncc2[N+](=O)[O-])CC1 ; retrieve measured logD.
Solution: -0.2

---

valueType: logP
One number for each entry.

smilesRecord: NS(=O)(=O)c1cc(Cl)c(Nc2nc3ccncc3c3c(=O)[nH]ccc23)c(Cl)c1
recordedResult: 1.17

Now for the compound whose logP we want.
Exercise: Param item = CC(C)(O)c1cc(Cl)c(Nc2nc3ccncc3c3c(=O)[nH]ccc23)c(Cl)c1 ; retrieve measured logP.
Solution: 1.34

---

- experimentalDetails: from Maeno, S., Miura, I., Masuda, K., & Nagata, T. (1990). Mepanipyrim(KIF-3535), a new pyrimidine fungicide. In Brighton Crop Protection Conference, Pests and Diseases - 1990 (Vol. 2, pp. 415-422). …
valueType: logP
Numbers only.

Exercise: Param item = CC#Cc1cc(C)nc(Nc2ccccc2)n1 ; retrieve measured logP.
Solution: 3.42

---

Task for the reader: assign each of the following compounds its reported logP.
- experimentalDetails: method code SF, from DOI: 10.1021/jm00294a005, PMID: 5000561
Give bare numbers.

Field: example entries. Status: answers known.
compound: CO[C@@H]1[C@@H](O[C@@H]2O[C@H](C)[C@@H](O[C@H]3C[C@@](C)(O)[C@@H](OC(=O)CC(C)C)[C@H](C)O3)[C@H](N(C)C)[C@H]2O)[C@@H](CC=O)C[C@@H](C)[C@@H](O)/C=C/C=C/C[C@@H](C)OC(=O)C[C@H]1O
recordedResult: 2.18

compound: CCCC1CC(C(=O)NC(C(C)O)C2OC(SC)C(O)C(O)C2O)N(C)C1 (stereo not drawn)
recordedResult: 0.2

Exercise: Param item = CCC(=O)OC1C(C)OC(OC2C(C)OC(OC3C(CC=O)CC(C)C(O)/C=C/C=C/CC(C)OC(=O)CC(OC(C)=O)C3OC)C(O)C2N(C)C)CC1(C)O (stereo not drawn) ; retrieve measured logP.
Solution: 1.38

---

valueType: logP

smilesRecord: Cc1[nH]cnc1CSCCNC1=NC(=O)CN1
logP: -0.5

Exercise: Param item = Cc1[nH]cnc1CSCCNc1cc(=O)cc[nH]1 ; retrieve measured logP.
Solution: 0.8

---

valueType: logP
Numbers only.

Exercise: Param item = COc1ccc(C=Cc2ccc(C=Cc3ccc(OC)c(C(F)(F)F)c3)c(O)c2)cc1C(F)(F)F ; retrieve measured logP.
Solution: 7.17

---

- experimentalDetails: method code SF-AS, from DOI: 10.1007/bf01648987
valueType: logP
One number for each entry.

smilesRecord: CCN(CCOC(C)=O)c1ccccc1
logP: 2.04
--
smilesRecord: CC(=O)OC(OC(C)=O)c1ccccc1
logP: 1.62
--
smilesRecord: CC(=O)Oc1cccc2ccccc12
logP: 2.78

Now for the compound whose logP we want.
Exercise: Param item = CC(=O)N(CCCl)c1ccc(CC(=O)O)cc1 ; retrieve measured logP.
Solution: 1.2

---

Task for the reader: assign each of the following compounds its reported logD.
- experimentalDetails: method code RP-HPLC, from DOI: 10.2166/wqrj.1987.010
- recordedConditions: pH 7.0
Numbers only.

smilesRecord: CNC(=O)Oc1cccc2c1OC(C)(C)C2
logD: 1.88

Now for the compound whose logD we want.
Exercise: Param item = Cc1cc(Cl)ccc1OCC(=O)OCCCCCC(C)C ; retrieve measured logD.
Solution: 6.69

---

- experimentalDetails: method code SF-HPLC, from DOI: 10.1002/ps.2780190203
- recordedConditions: pH 1.0
Task for the reader: assign each of the following compounds its reported logD.
Give bare numbers.

smilesRecord: O=C(O)COc1ccc(Oc2ccc(Cl)cc2Cl)cc1
recordedResult: 4.51

Now for the compound whose logD we want.
Exercise: Param item = O=C(O)COc1cc(Cl)cc(Cl)c1 ; retrieve measured logD.
Solution: 2.84

---

valueType: logP
One number for each entry.

Hey, quick one: what's logP for each of these?
1. CC1=C(C(=O)OC(C)C)C(c2cccc([N+](=O)[O-])c2)C(C(=O)OC2CN(C(c3ccccc3)c3ccccc3)C2)=C(N)N1 (centres undefined)
2. CCOC(=O)C1=C(C)NC(C)=C(C(=O)OC)C1c1cccc([N+](=O)[O-])c1 (centres undefined)

Solution:
[5.18, 2.88]

Hey, quick one: what's logP for each of these?
1. CCOC(=O)C1=C(C)NC(C)=C(C(=O)OC)C1c1cccc(Cl)c1Cl (centres undefined)
2. COC(=O)C1=C(C)NC(C)=C(C(=O)OC/C=C/c2ccccc2)C1c1cccc([N+](=O)[O-])c1 (centres undefined)

Solution:
1: 3.65; 2: 4.26

---

- experimentalDetails: method code SF-AS, from DOI: 10.1002/jps.2600710122
valueType: logP
One number for each entry.

smilesRecord: CC(=O)Nc1n[nH]c(NC(C)=O)n1
recordedResult: -1.01

Exercise: Param item = Nc1nc(NC(=O)C(F)(F)C(F)(F)C(F)(F)F)n[nH]1 ; retrieve measured logP.
Solution: 1.54

---

Task for the reader: assign each of the following molecules its reported logP.
Numbers only.

smilesRecord: O=C1CN=C(c2ccccc2F)c2cc(Cl)ccc2N1CC(F)(F)F
logP: 3.36

Exercise: Param item = Fc1ccccc1C1=NCC(=S)N(CC(F)(F)F)c2ccc(Cl)cc21 ; retrieve measured logP.
Solution: 4.03

---

- experimentalDetails: method code SF-AS, from PMID: 301777
valueType: logP
Answers are plain numbers.

Exercise: Param item = CCc1nc(N)nc(N)c1-c1ccc(Cl)c(Cl)c1 ; retrieve measured logP.
Solution: 3.19

---

- experimentalDetails: method code SF-AS, from Korenman, I.; Nefedova, E.; Dyukova, I. (1977). Extraction of picramic acid. Int J Clin Pharmacol Ther Toxicol, 51(5)734-735.
- recordedConditions: pH 7.4
valueType: logD
Answers are plain numbers.

Exercise: Param item = CC(C)c1cnc([N+](=O)[O-])n1C ; retrieve measured logD.
Solution: 1.09

---

Task for the reader: assign each of the following compounds its reported logP.
Answers are plain numbers.

smilesRecord: On1ccccc1=S
logP: 0.4

Exercise: Param item = O=C(O)c1ccccn1 ; retrieve measured logP.
Solution: -1

---

- experimentalDetails: method code SF-AS, from DOI: 10.1039/p29900001191
- recordedConditions: pH 12.0
valueType: logD
Numbers only.

Field: example entries. Status: answers known.
smilesRecord: Cc1cc(-c2ccccc2)nnc1NCCN1CCOCC1
valueType: logD
recordedResult: 2.03

smilesRecord: CCc1cc(-c2ccccc2)nnc1NCCN1CCOCC1
valueType: logD
recordedResult: 2.53

smilesRecord: NC(=O)c1cc(-c2ccccc2)nnc1NCCN1CCOCC1
valueType: logD
recordedResult: 1.86

Now for the molecule whose logD we want.
Exercise: Param item = c1ccc(-c2cc(-c3ccccc3)c(NCCN3CCOCC3)nn2)cc1 ; retrieve measured logD.
Solution: 3.38

---

Task for the reader: assign each of the following molecules its reported logP.
Numbers only.

smilesRecord: Clc1ccc(Cl)c(Cl)c1
recordedResult: 4.03

smilesRecord: NC(=O)c1c(Cl)cccc1Cl
recordedResult: 1.25

Now for the molecule whose logP we want.
Exercise: Param item = O=[N+]([O-])c1c(Cl)c(Cl)c(Cl)c(Cl)c1Cl ; retrieve measured logP.
Solution: 4.64

---

valueType: logP
Numbers only.

Exercise: Param item = CCCCCCc1ccccc1 ; retrieve measured logP.
Solution: 5.24

---

Task for the reader: assign each of the following compounds its reported logP.
Numbers only.

Field: example entries. Status: answers known.
compound: O=C(Oc1ccc2ccccc2c1)C1OC(O)C(O)C(O)C1O (centres undefined)
logP: 1.39

compound: O=C(Oc1ccc(Cl)cc1)C1OC(O)C(O)C(O)C1O (centres undefined)
logP: 0.45

compound: O=C(Oc1ccc([N+](=O)[O-])cc1)C1OC(O)C(O)C(O)C1O (centres undefined)
logP: -0.45

Now for the compound whose logP we want.
Exercise: Param item = O=C(Oc1ccc(F)cc1)C1OC(O)C(O)C(O)C1O (centres undefined) ; retrieve measured logP.
Solution: -0.42

The values you see were collected from the SangsterLogP compilation.
